Taken from patent US5695970A.

- System: α-1,4-glucan lyase
- ASSAY SUMMARY: Substrate specificity of α-1,4-glucan lyase (release of 1,5-anhydrofructose, DNS method, 15 min)
- Format: biochemical, Gracilariopsis lemaneiformis
- MEASUREMENT CONDITIONS: higher substrate concentrations; 10 mg ml^-1 compared with 2 and 4 mg ml^-1

COMPOUND	substrate inhibition
OC[C@H]1O[C@H](O[C@H]2[C@H](O)[C@@H](O)[C@@H](O[C@H]3[C@H](O)[C@@H](O)[C@@H](O[C@H]4[C@H](O)[C@@H](O)[C@@H](O[C@H]5[C@H](O)[C@@H](O)[C@@H](O[C@H]6[C@H](O)[C@@H](O)[C@@H](O[C@H]7[C@H](O)[C@@H](O)C(O)O[C@@H]7CO)O[C@@H]6CO)O[C@@H]5CO)O[C@@H]4CO)O[C@@H]3CO)O[C@@H]2CO)[C@H](O)[C@@H](O)[C@@H]1O (stereo partly shown) [Maltoheptaose, maltoheptaose]	none
